SYSTEM: SARS-COV-2 3CLpro/Mpro protease (Severe acute respiratory syndrome coronavirus 2 (2019-nCoV) (SARS-CoV-2), UniProt P0DTD1)
ASSAY DETAILS: Inhibitory effect on SARS-COV-2 3CLpro/Mpro protease by fluorescence resonance energy transfer
Type: biochemical
STUDY CONDITIONS: activity intervals A-D, read-out: IC50 (nM), Inhibition on SARS-CoV-2 3CLpro/Mpro protease
MEASUREMENT TYPE: IC50

**Query** IC50 lookup needed for C[C@@H]1CN(C(=O)c2cc(Br)cc([N+](=O)[O-])c2N[C@@H]2CCCN(C(=O)c3cncc4[nH]cnc34)C2)C[C@H](C)O1 , thanks.
**Result** 10 to 50 nM

**Query** IC50 lookup needed for CNc1cncc(C(=O)N2C[C@H](Nc3c(C(=O)N4C[C@@H](C)O[C@@H](C)C4)cc(Br)cc3[N+](=O)[O-])C[C@H]2C(=O)NCc2ccnc(F)c2)c1 , thanks.
**Result** 100 to 200 nM

**Query** IC50 lookup needed for O=C(N[C@H]1CCCC[C@H]1Nc1c(C(=O)N2CC3(CCOCC3)C2)cc(Br)cc1[N+](=O)[O-])c1cncc2cc(Cl)ccc12 , thanks.
**Result** 10 to 50 nM

**Query** IC50 lookup needed for O=C(c1cc(Br)cc([N+](=O)[O-])c1N[C@@H]1CCCN(C(=O)c2cncc3cc(Cl)ccc23)C1)N1CCCCC1 , thanks.
**Result** < 10 nM

**Query** IC50 lookup needed for CC(C)(C)C1CCN(C(=O)c2cc(Br)cc([N+](=O)[O-])c2N[C@@H]2CCCN(C(=O)[C@@H]3CCNC(=O)C3)C2)CC1 , thanks.
**Result** 10 to 50 nM

**Query** IC50 lookup needed for C[C@@H]1CN(C(=O)c2cc(Br)cc([N+](=O)[O-])c2N[C@@H]2CCCC[C@@H]2NC(=O)c2cncc3cc(Cl)ccc23)C[C@H](C)O1 , thanks.
**Result** < 10 nM

**Query** IC50 lookup needed for CNc1cncc(C(=O)N2C[C@H](Nc3c(C(=O)N4C[C@@H](C)O[C@@H](C)C4)cc(Br)cc3[N+](=O)[O-])C[C@H]2C(=O)Nc2cc(C(F)(F)F)ncn2)c1 , thanks.
**Result** 50 to 100 nM

**Query** IC50 lookup needed for C[C@@H]1CN(C(=O)c2cc(Br)cc([N+](=O)[O-])c2N[C@@H]2CCCC[C@@H]2NC(=O)c2cc(=O)[nH]c3ccccc23)C[C@H](C)O1 , thanks.
**Result** < 10 nM

**Query** IC50 lookup needed for CNc1cncc(C(=O)N2CCC[C@@H](Nc3c(C(=O)N4C[C@H]5C[C@@H]4CO5)cc(Br)cc3[N+](=O)[O-])C2)c1 , thanks.
**Result** 10 to 50 nM

**Query** IC50 lookup needed for O=C(c1cncc(O)c1)N1CCC[C@@H](Nc2c(C(=O)N3CCC(F)(F)CC3)cc(Br)cc2[N+](=O)[O-])C1 , thanks.
**Result** 50 to 100 nM

**Query** IC50 lookup needed for CNc1cncc(C(=O)N2CC(Nc3c(C(=O)N4CCC(C)(C)CC4)cc(Br)cc3[N+](=O)[O-])C(F)(F)C2)c1 (stereo not drawn) , thanks.
**Result** 10 to 50 nM

**Query** IC50 lookup needed for O=C(N[C@H]1CCCC[C@H]1Nc1c(C(=O)N2CC[C@@H](O)C2)cc(Br)cc1C(F)(F)F)c1cncc2cc(Cl)ccc12 , thanks.
**Result** 10 to 50 nM

**Query** IC50 lookup needed for C[C@@H]1CN(C(=O)c2cc(Br)cc([N+](=O)[O-])c2N[C@@H]2CCCN(C(=O)c3cc(=O)[nH]c4cc(Cl)ccc34)C2)C[C@H](C)O1 , thanks.
**Result** 10 to 50 nM

**Query** IC50 lookup needed for CNc1cncc(C(=O)N2CC(Nc3c(C(=O)N4CCC[C@H](C)C4)cc(Br)cc3[N+](=O)[O-])C(C)(C)C2)c1 (stereo partly drawn) , thanks.
**Result** 10 to 50 nM

**Query** IC50 lookup needed for O=C(c1cc(Br)cc([N+](=O)[O-])c1N[C@@H]1CCCN(C(=O)c2cncc3ccccc23)C1)N1CC2CC2C1 (stereo partly drawn) , thanks.
**Result** 10 to 50 nM

**Query** IC50 lookup needed for CNc1cncc(C(=O)N2CCC[C@@H](Nc3c(C(=O)N4CCc5sccc5C4)cc(Br)cc3[N+](=O)[O-])C2)c1 , thanks.
**Result** 10 to 50 nM

**Query** IC50 lookup needed for CNc1cncc(C(=O)N2C[C@H](Nc3c(C(=O)N4CCCCC4)cc(Br)cc3[N+](=O)[O-])[C@@H](OC)C2)c1 , thanks.
**Result** 10 to 50 nM

**Query** IC50 lookup needed for CNc1cncc(C(=O)N2C[C@H](Nc3c(C(=O)N4C[C@@H](C)O[C@@H](C)C4)cc(Br)cc3[N+](=O)[O-])C[C@@H](O[C@@H]3CCOC3)C2)c1 , thanks.
**Result** 10 to 50 nM

**Query** IC50 lookup needed for Cc1cc(C(=O)N2C[C@H](Nc3c(C(=O)NC4CCCCC4)cc(Br)cc3[N+](=O)[O-])C3(CC3)C2)cc(=O)[nH]1 , thanks.
**Result** 10 to 50 nM

**Query** IC50 lookup needed for CNc1cncc(C(=O)N2C[C@H](Nc3c(C(=O)N4CC5C(C4)C5(C)C)cc(Br)cc3[N+](=O)[O-])C3(CC3)C2)c1 (stereo partly drawn) , thanks.
**Result** 10 to 50 nM

**Query** IC50 lookup needed for COCCN1CCN(C(=O)c2cc(Br)cc([N+](=O)[O-])c2NC2CN(C(=O)c3cncc(I)c3)CC2(F)F)CC1 (stereo not drawn) , thanks.
**Result** 10 to 50 nM

**Query** IC50 lookup needed for CNc1cncc(C(=O)N2CCC[C@@H](Nc3c(C(=O)N4C[C@@H](C)O[C@H](C)C4)cc(Br)cc3[N+](=O)[O-])C2)c1 , thanks.
**Result** 10 to 50 nM

**Query** IC50 lookup needed for C[C@@H]1CN(C(=O)c2cc(Br)cc([N+](=O)[O-])c2N[C@@H]2CCCN(C(=O)C3CCNC(=O)C3)C2)C[C@H](C)O1 (stereo partly drawn) , thanks.
**Result** 100 to 200 nM

**Query** IC50 lookup needed for CO[C@H]1CN(C(=O)c2cncc3[nH]nc(C)c23)C[C@@H]1Nc1c(C(=O)N2C[C@@H](C)O[C@@H](C)C2)cc(Br)cc1[N+](=O)[O-] , thanks.
**Result** 10 to 50 nM

====

ASSAY DETAILS: in vivo
STUDY CONDITIONS: male, CD1, mouse, in vivo, iv, 1 mg/kg
MEASUREMENT TYPE: AUC (ng·h/mL)
// units = ng·h/mL; emit number, no label

**Query** AUC lookup needed for CNc1cncc(C(=O)N2C[C@H](Nc3c(C(=O)N4C[C@@H](C)O[C@@H](C)C4)cc(Br)cc3[N+](=O)[O-])[C@@H](OC)C2)c1 [Example 321] , thanks.
**Result** 153

**Query** AUC lookup needed for CNc1cncc(C(=O)N2C[C@H](Nc3c(C(=O)N4C[C@@H](C)O[C@@H](C)C4)cc(Br)cc3[N+](=O)[O-])C[C@@H](OC)C2)c1 [Example 422] , thanks.
**Result** 102

**Query** AUC lookup needed for CNc1cncc(C(=O)N2CCC[C@@H](Nc3c(C(=O)N4CCO[C@H](C)C4)cc(Br)cc3[N+](=O)[O-])C2)c1 [Example 35] , thanks.
**Result** 112

**Query** AUC lookup needed for CNc1cncc(C(=O)N2CCC[C@@H](Nc3c(C(=O)N4CCCC(F)(F)C4)cc(Br)cc3[N+](=O)[O-])C2)c1 [Example 36] , thanks.
**Result** 92

**Query** AUC lookup needed for CNc1cncc(C(=O)N2CCC[C@@H](Nc3c(C(=O)N4C5CCCC4COC5)cc(Br)cc3[N+](=O)[O-])C2)c1 [Example 312] , thanks.
**Result** 95

**Query** AUC lookup needed for CNc1cncc(C(=O)N2CCC[C@@H](Nc3c(C(=O)N4CCOC(F)(F)C4)cc(Br)cc3[N+](=O)[O-])C2)c1 [Example 295] , thanks.
**Result** 136

**Query** AUC lookup needed for O=C(c1cc(Br)cc([N+](=O)[O-])c1N[C@@H]1CCCN(C(=O)[C@H]2CNCC(F)(F)C2)C1)N1CCCCC1 [Example 320] , thanks.
**Result** 156

**Query** AUC lookup needed for CNc1cncc(C(=O)N2CCC[C@@H](Nc3c(C(=O)N4CCCCC4)cc(Br)cc3[N+](=O)[O-])C2)c1 [Example 31] , thanks.
**Result** 88

**Query** AUC lookup needed for CNc1cncc(C(=O)N2CCC[C@@H](Nc3c(C(=O)N4C[C@@H](C)O[C@@H](C)C4)cc(Br)cc3[N+](=O)[O-])C2)c1 [Example 34] , thanks.
**Result** 107
